# test_description: Pharmacokinetic analysis in ICR mice
# Format: in vivo
# recorded_conditions: male, mouse, plasma, iv, 2 mg/kg
measured_metric: AUC(0-inf)
Enter the number, and then the unit.

Output measured AUC(0-inf) for this item: `O=c1c(O)c(N2CCN(Cc3ccc(Br)cc3F)CC2)oc2ccccc12`
995 ng·h/mL

* * *

# assay_system: UniProt P84022
measured_metric: pKd
Numbers only, as −log10 of the molar value.

Could you please provide reported pKd for `O=c1c(O)c(N2CCN(Cc3ccc(Br)cc3F)CC2)oc2ccccc12` ? Thanks!
5.10

* * *

# assay_system: MH1 domain of Smad3 (Homo sapiens, UniProt P84022)
# Sequence (P84022 10-136 limits assumed): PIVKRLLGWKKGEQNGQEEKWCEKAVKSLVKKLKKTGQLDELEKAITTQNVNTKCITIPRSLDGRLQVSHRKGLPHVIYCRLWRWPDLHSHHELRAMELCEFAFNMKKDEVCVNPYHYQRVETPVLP
measured_metric: pKd
Answers are plain numbers, as −log10 of the molar value.

Return value of pKd for input O=c1c(O)c(N2CCN(Cc3ccc(Br)cc3F)CC2)oc2ccccc12 [RMY-205] , no commentary.
4.88

* * *

# test_description: Pharmacokinetic analysis in ICR mice
# Assay type: in vivo
# recorded_conditions: male, mouse, plasma, ip, 10 mg/kg
measured_metric: AUC (ng·h/mL)
One number for each entry, in ng·h/mL.

Supply measured AUC of O=c1c(O)c(N2CCN(Cc3ccc(Br)cc3F)CC2)oc2ccccc12 [RMY-205] in your reply.
2130

* * *

# test_description: Pharmacokinetic analysis in ICR mice
# Assay type: in vivo
# recorded_conditions: male, mouse, plasma, po, 10 mg/kg
measured_metric: Tmax (min)
Numbers only, in min.

Output measured Tmax for this item: `O=c1c(O)c(N2CCN(Cc3ccc(Br)cc3F)CC2)oc2ccccc12`
19.8

* * *

# test_description: Pharmacokinetic analysis in ICR mice
# Format: in vivo
# recorded_conditions: male, mouse, plasma, iv, 2 mg/kg
measured_metric: Vd (L/kg)
Answers are plain numbers, in L/kg.

For the molecule O=c1c(O)c(N2CCN(Cc3ccc(Br)cc3F)CC2)oc2ccccc12 [RMY-205] , report Vd.
3

* * *

# test_description: Pharmacokinetic analysis in ICR mice
# Assay type: in vivo
# recorded_conditions: male, mouse, plasma, po, 10 mg/kg
measured_metric: half-life

Provide one value: measured half-life of `O=c1c(O)c(N2CCN(Cc3ccc(Br)cc3F)CC2)oc2ccccc12`
2.55 h

* * *

# test_description: Pharmacokinetic analysis in ICR mice
# Format: in vivo
# recorded_conditions: male, mouse, plasma, po, 10 mg/kg
measured_metric: AUC(0-inf) (ng·h/mL)
Give bare numbers, in ng·h/mL.

Provide one value: measured AUC(0-inf) of O=c1c(O)c(N2CCN(Cc3ccc(Br)cc3F)CC2)oc2ccccc12 [RMY-205]
1870

* * *

# test_description: Pharmacokinetic analysis in ICR mice
# Format: in vivo
# recorded_conditions: male, mouse, plasma, ip, 10 mg/kg
measured_metric: Cmax (ng/mL)
Answers are plain numbers, in ng/mL.

Please look at this compound and report its Cmax: `O=c1c(O)c(N2CCN(Cc3ccc(Br)cc3F)CC2)oc2ccccc12`
1820

* * *

# test_description: Pharmacokinetic analysis in ICR mice
# Type: in vivo
# recorded_conditions: male, mouse, plasma, ip, 10 mg/kg
measured_metric: AUC(0-inf) (ng·h/mL)
Numbers only, in ng·h/mL.

Read the entry O=c1c(O)c(N2CCN(Cc3ccc(Br)cc3F)CC2)oc2ccccc12 [RMY-205] and write its reported AUC(0-inf).
2130

* * *

# test_description: Pharmacokinetic analysis in ICR mice
# Format: in vivo
# recorded_conditions: male, mouse, plasma, iv, 2 mg/kg
measured_metric: clearance (mL/min/kg)
Numbers only, in mL/min/kg.

Assign clearance to the following record: `O=c1c(O)c(N2CCN(Cc3ccc(Br)cc3F)CC2)oc2ccccc12`
34

* * *

# test_description: Pharmacokinetic analysis in ICR mice
# Format: in vivo
# recorded_conditions: male, mouse, plasma, po, 10 mg/kg
measured_metric: AUC (ng·h/mL)
Numbers only, in ng·h/mL.

Dear colleague, please send me the reported AUC for O=c1c(O)c(N2CCN(Cc3ccc(Br)cc3F)CC2)oc2ccccc12 [RMY-205] when you can.
1870

* * *

# test_description: Pharmacokinetic analysis in ICR mice
# Type: in vivo
# recorded_conditions: male, mouse, plasma, po, 10 mg/kg
measured_metric: Cmax

Tell me measured Cmax for `O=c1c(O)c(N2CCN(Cc3ccc(Br)cc3F)CC2)oc2ccccc12` please.
1040 ng/mL

* * *

# test_description: Pharmacokinetic analysis in ICR mice
# Type: in vivo
# recorded_conditions: male, mouse, plasma, iv, 2 mg/kg
measured_metric: AUC (ng·h/mL)
One number for each entry, in ng·h/mL.

Indicate the recorded AUC value for this compound: `O=c1c(O)c(N2CCN(Cc3ccc(Br)cc3F)CC2)oc2ccccc12`
995
